- Test system: Rattus norvegicus
- assay_info: Immunosuppressive activity in Lewis rat assessed as reduction in blood lymphocytes count at 2 mg/kg, po after 24 hrs relative to control
- Format: functional
- Design: scale not given: the % may be the effect or the level left
Activity values, listed per item
Numeric only. Scale: %

CCCCN(C)c1nc2c(s1)-c1ccc([C@H]3CC[C@](N)(CO)C3)cc1CC2 = 27
CCCCSc1nc2ccc3cc([C@H]4CC[C@](N)(CO)C4)ccc3c2s1 = 75
CCCCCCCc1nc2c(s1)-c1ccc([C@H]3CC[C@](N)(CO)C3)cc1CC2 = 77
CCCCOc1nc2c(s1)-c1ccc([C@H]3CC[C@](N)(CO)C3)cc1CC2 = 68
CCCCCSc1nc2c(s1)-c1ccc([C@H]3CC[C@](N)(CO)C3)cc1CC2 = 76
CCCCc1nc2c(s1)-c1ccc([C@H]3CC[C@](N)(CO)C3)cc1CC2 = 48
CCCCOCCOc1nc2c(s1)-c1ccc([C@H]3CC[C@](N)(CO)C3)cc1CC2 = 87
CCCCCCOc1nc2c(s1)-c1ccc([C@H]3CC[C@](N)(CO)C3)cc1CC2 = 82

Give its Activity value. Item: "CCCCCOc1nc2ccc3cc([C@H]4CC[C@](N)(CO)C4)ccc3c2s1"
80

Which value of Activity has been reported for "Cc1ccc(-c2nc3c(s2)-c2ccc([C@H]4CC[C@](N)(CO)C4)cc2CC3)cc1" in the records?
2.1

* * *

- assay_info: Half life in Lewis rat at 2 mg/kg, po after 72 hrs
- Type: ADME, organism-based
- experimental_conditions: in vivo
Please note: class 1 applies when half-life is 9 h or greater, and class 0 applies otherwise.

State whether the measured half-life reaches 9 h, counting equality as reaching it, for "CCCCSc1nc2c(s1)-c1ccc([C@H]3CC[C@](N)(CO)C3)cc1CC2"
class 0

* * *

- assay_info: Half life in Lewis rat at 2 mg/kg, po after 72 hrs
- Assay type: ADME, organism-based
- experimental_conditions: in vivo
// label = 1 (yes) if half-life is not less than 20 h, otherwise 0 (no)

The examples below pair each entry with its known result.
CCCCCOc1nc2c(s1)-c1ccc([C@H]3CC[C@](N)(CO)C3)cc1CC2 = 1 (yes)
CCCCCCc1nc2c(s1)-c1ccc([C@H]3CC[C@](N)(CO)C3)cc1CC2 = 1 (yes)
CCCCCCCc1nc2c(s1)-c1ccc([C@H]3CC[C@](N)(CO)C3)cc1CC2 = 1 (yes)
CCCCOc1nc2c(s1)-c1ccc([C@H]3CC[C@](N)(CO)C3)cc1CC2 = 0 (no)

hey, is half-life for this one >= 20 h? "CCCc1nc2c(s1)-c1ccc([C@H]3CC[C@](N)(CO)C3)cc1CC2"
0 (no)

Hi, just wondering whether "COc1cccc(-c2nc3c(s2)-c2ccc([C@H]4CC[C@](N)(CO)C4)cc2CC3)c1" shows half-life of 20 h or higher.
0 (no)

Kindly determine if half-life recorded for "CCCCCCOc1nc2c(s1)-c1ccc([C@H]3CC[C@](N)(CO)C3)cc1CC2" is above or exactly 20 h.
1 (yes)

Hi team, for "CCCCCSc1nc2c(s1)-c1ccc([C@H]3CC[C@](N)(CO)C3)cc1CC2" , is the recorded half-life at or above 20 h?
0 (no)

Entry "CCCCCOc1nc2ccc3cc([C@H]4CC[C@](N)(CO)C4)ccc3c2s1" : is its half-life no less than 20 h?
1 (yes)

* * *

Attribute: Emax
- experimental_system: Sphingosine 1-phosphate receptor 1 (Homo sapiens)
- Sequence (P21453 whole entry): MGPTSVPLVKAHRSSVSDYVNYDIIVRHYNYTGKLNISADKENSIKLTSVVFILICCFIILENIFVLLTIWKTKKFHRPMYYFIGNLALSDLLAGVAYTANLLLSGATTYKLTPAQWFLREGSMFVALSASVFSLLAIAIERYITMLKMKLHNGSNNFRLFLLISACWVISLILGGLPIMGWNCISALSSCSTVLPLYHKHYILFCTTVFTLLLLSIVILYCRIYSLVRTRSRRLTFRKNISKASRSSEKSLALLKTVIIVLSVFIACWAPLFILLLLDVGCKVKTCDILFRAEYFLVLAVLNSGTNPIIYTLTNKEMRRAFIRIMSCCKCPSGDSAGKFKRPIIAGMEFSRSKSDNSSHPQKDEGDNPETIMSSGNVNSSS
- assay_info: Agonist activity at human S1P1 receptor expressed in CHO cell membranes after 45 mins by [35S]GTPgammaS binding assay
- Format: functional
Could you give me the number in %? Just the number is fine.

// below: answered compounds
CCCCCc1nc2c(s1)-c1ccc([C@H]3CC[C@](N)(COP(=O)(O)O)C3)cc1CC2 = 79
CCCCOc1nc2c(s1)-c1ccc([C@H]3CC[C@](N)(COP(=O)(O)O)C3)cc1CC2 = 58
CCCc1nc2c(s1)-c1ccc([C@H]3CC[C@](N)(COP(=O)(O)O)C3)cc1CC2 = 79
CCCCCCOc1nc2c(s1)-c1ccc([C@H]3CC[C@](N)(COP(=O)(O)O)C3)cc1CC2 = 100
CCCCNc1nc2c(s1)-c1ccc([C@H]3CC[C@](N)(COP(=O)(O)O)C3)cc1CC2 = 49

Look up Emax: "CCCCCCCc1nc2c(s1)-c1ccc([C@H]3CC[C@](N)(COP(=O)(O)O)C3)cc1CC2"
98

For "CCCCSc1nc2c(s1)-c1ccc([C@H]3CC[C@](N)(COP(=O)(O)O)C3)cc1CC2" , what is its reported Emax?
58

Suppose we examine the compound "CCCCOCCOc1nc2c(s1)-c1ccc([C@H]3CC[C@](N)(COP(=O)(O)O)C3)cc1CC2" ; what Emax value has been reported?
110

* * *

- assay_info: Prodrug conversion in Lewis rat blood assessed as formation phosphate metabolite at 2 mg/kg, po after 48 hrs
- Assay type: ADME, organism-based
- experimental_conditions: in vivo
readout_label: Drug metabolism

CCCCCCOc1nc2c(s1)-c1ccc([C@H]3CC[C@](N)(CO)C3)cc1CC2 = < 5 nM
CCCCCc1nc2c(s1)-c1ccc([C@H]3CC[C@](N)(CO)C3)cc1CC2 = 16 nM
CCCCOc1nc2c(s1)-c1ccc([C@H]3CC[C@](N)(CO)C3)cc1CC2 = 4 nM
CCCCc1nc2c(s1)-c1ccc([C@H]3CC[C@](N)(CO)C3)cc1CC2 = < 5 nM
CCCCSc1nc2c(s1)-c1ccc([C@H]3CC[C@](N)(CO)C3)cc1CC2 = < 1 nM
CCCCOc1nc2ccc3cc([C@H]4CC[C@](N)(CO)C4)ccc3c2s1 = < 5 nM
CCCCCCc1nc2c(s1)-c1ccc([C@H]3CC[C@](N)(CO)C3)cc1CC2 = 50 nM
CCCCCCOc1nc2ccc3cc([C@H]4CC[C@](N)(CO)C4)ccc3c2s1 = 160 nM
CCCCOCCOc1nc2c(s1)-c1ccc([C@H]3CC[C@](N)(CO)C3)cc1CC2 = 18 nM
CCCCSc1nc2ccc3cc([C@H]4CC[C@](N)(CO)C4)ccc3c2s1 = < 5 nM

Give its Drug metabolism value. Item: "CCCCCCCc1nc2c(s1)-c1ccc([C@H]3CC[C@](N)(CO)C3)cc1CC2"
150 nM

Returns the measured Drug metabolism for the input compound. Input: "CCCCCOc1nc2c(s1)-c1ccc([C@H]3CC[C@](N)(CO)C3)cc1CC2"
< 5 nM

What does the record list as Drug metabolism for "COc1cccc(-c2nc3c(s2)-c2ccc([C@H]4CC[C@](N)(CO)C4)cc2CC3)c1" ?
< 5 nM

Fill in: Drug metabolism of "CCCCCSc1nc2c(s1)-c1ccc([C@H]3CC[C@](N)(CO)C3)cc1CC2" is ___
< 5 nM

* * *

- assay_info: Prodrug conversion in Lewis rat blood assessed as formation phosphate metabolite at 2 mg/kg, po after 24 hrs
- Type: ADME, organism-based
- experimental_conditions: in vivo
readout_label: Drug metabolism (nM)
Lab book: enter the figure in nM, no units written.

Recorded results for 2 compounds are shown here.
CCCCCc1nc2c(s1)-c1ccc([C@H]3CC[C@](N)(CO)C3)cc1CC2 = 56
CCCCSc1nc2c(s1)-c1ccc([C@H]3CC[C@](N)(CO)C3)cc1CC2 = 2.3

Given the entry "Cc1ccc(-c2nc3c(s2)-c2ccc([C@H]4CC[C@](N)(CO)C4)cc2CC3)cc1" , report its measured Drug metabolism.
19

* * *

Below: a set of entries, each annotated with reported Drug metabolism.
- assay_info: Prodrug conversion in Lewis rat blood assessed as formation phosphate metabolite at 2 mg/kg, po after 4 hrs
- Type: ADME, organism-based
- experimental_conditions: in vivo
Write it as a number; the unit nM goes unstated.

# query: Drug metabolism of entry "CCCCSc1nc2c(s1)-c1ccc([C@H]3CC[C@](N)(CO)C3)cc1CC2"
15

// returns reported Drug metabolism for input "CCCCSc1nc2ccc3cc([C@H]4CC[C@](N)(CO)C4)ccc3c2s1"
10

What does the record list as Drug metabolism for "CCCCCc1nc2c(s1)-c1ccc([C@H]3CC[C@](N)(CO)C3)cc1CC2" ?
91

Which Drug metabolism reading was recorded for the compound "CCCCCCc1nc2c(s1)-c1ccc([C@H]3CC[C@](N)(CO)C3)cc1CC2" ?
140

* * *

- assay_info: Prodrug conversion in Lewis rat blood assessed as parent compound levels at 2 mg/kg, po after 24 hrs
- Type: ADME, organism-based
- experimental_conditions: in vivo, read-out: Drug metabolism
Label YES when concentration < 20 nM; otherwise NO.

The examples below pair each entry with its known result.
CCCCCOc1nc2c(s1)-c1ccc([C@H]3CC[C@](N)(CO)C3)cc1CC2 = NO
CCCCSc1nc2ccc3cc([C@H]4CC[C@](N)(CO)C4)ccc3c2s1 = YES
CCCCOc1nc2c(s1)-c1ccc([C@H]3CC[C@](N)(CO)C3)cc1CC2 = YES
CCCCc1nc2c(s1)-c1ccc([C@H]3CC[C@](N)(CO)C3)cc1CC2 = YES
CCCCCSc1nc2c(s1)-c1ccc([C@H]3CC[C@](N)(CO)C3)cc1CC2 = YES

Lab note: confirm whether the reported concentration for this molecule is below 20 nM, equality not counting. molecule: "CCCc1nc2c(s1)-c1ccc([C@H]3CC[C@](N)(CO)C3)cc1CC2"
YES

Strictly below 20 nM in concentration? "CCCCCOc1nc2ccc3cc([C@H]4CC[C@](N)(CO)C4)ccc3c2s1"
YES

Dear colleague, could you confirm whether concentration of "CCCCCc1nc2c(s1)-c1ccc([C@H]3CC[C@](N)(CO)C3)cc1CC2" falls below 20 nM? Thanks.
NO

Please let me know if "CCCCCCc1nc2c(s1)-c1ccc([C@H]3CC[C@](N)(CO)C3)cc1CC2" shows concentration below 20 nM.
NO

# TODO verify concentration < 20 nM strictly for this molecule: "Cc1ccc(-c2nc3c(s2)-c2ccc([C@H]4CC[C@](N)(CO)C4)cc2CC3)cc1"
NO
